assay: molar heat capacity at constant pressure; details: 327.15 K; 101.33 kPa; Liquid; Large sample (1 g) DSC
± gives the expanded uncertainty stated by the source.
Below, each entry is listed alongside its reported molar heat capacity at constant pressure.
recorded-metric: molar heat capacity at constant pressure

compound	recorded-metric	observed-value
CCOCCO	molar heat capacity at constant pressure	221.8 ± 3.4 J/K/mol
CCCCCCOCCOCCO	molar heat capacity at constant pressure	434.9 ± 6.7 J/K/mol
CCCCOCCOCCO	molar heat capacity at constant pressure	373.8 ± 5.8 J/K/mol
CCCOCCOCCO	molar heat capacity at constant pressure	341.1 ± 5.3 J/K/mol
CCOCCOCCO	molar heat capacity at constant pressure	311.2 ± 4.8 J/K/mol
CCCCOCCO	molar heat capacity at constant pressure	287.5 ± 4.5 J/K/mol
COCCOCCOCCO [2-[2-(2-methoxyethoxy)ethoxy]ethanol]	molar heat capacity at constant pressure	364 ± 5.6 J/K/mol
COCCOCCO	molar heat capacity at constant pressure	276 ± 4.3 J/K/mol
CCCOCCO	molar heat capacity at constant pressure	254.3 ± 3.9 J/K/mol
COCCOCCOCCOCCO	molar heat capacity at constant pressure	456 ± 7.1 J/K/mol
CCCCCCCCOCCOCCOCCO [2-[2-[2-(octyloxy)ethoxy]ethoxy]ethanol]	molar heat capacity at constant pressure	590.3 ± 9.1 J/K/mol

Entry source: the NIST ThermoML archive (doi:10.1021/acs.jced.5b00051)
